Below, each entry is listed with its recorded Tumor volume.
Tested on: HCT116 colon cancer cells
TEST: In vivo anti-cancer activity by oral administration, HCT116 tumor in nude mice
Set-up: species or system BALB/c nu/nu mice
PROTOCOL_CONDITIONS: day 10, 20 mg/kg oral once a day
The response must be a number in mm^3 with no trailing unit.

Observe how each entry below is paired with its result.
COMPOUND: CN1CCN(C(=O)COc2ccc(C34CC5CC(CC(C5)C3)C4)cc2)CC1 [Compound I-3]
VALUE_KIND: Tumor volume
READOUT_UNITS: mm^3
QUANTITATIVE_READOUT: 237.0
//
COMPOUND: Cc1cc(C23CC4CC(CC(C4)C2)C3)ccc1OCC(=O)N1CC[N+](C)(C)CC1.[I-] [Compound I-16]
VALUE_KIND: Tumor volume
READOUT_UNITS: mm^3
QUANTITATIVE_READOUT: 185.7
//
COMPOUND: CN1CCN(C(=O)CCOc2ccc(C34CC5CC(CC(C5)C3)C4)cc2)CC1 [Compound I-8]
VALUE_KIND: Tumor volume
READOUT_UNITS: mm^3
QUANTITATIVE_READOUT: 184.3
//
COMPOUND: CN1CCN(C(=O)C(C)(C)Oc2ccc(C34CC5CC(CC(C5)C3)C4)cc2)CC1 [Compound I-23]
VALUE_KIND: Tumor volume
READOUT_UNITS: mm^3
QUANTITATIVE_READOUT: 352.7
//
COMPOUND: C[N+](C)(C)CCNC(=O)CCOc1ccc(C23CC4CC(CC(C4)C2)C3)cc1.[I-] [Compound I-19]
VALUE_KIND: Tumor volume
READOUT_UNITS: mm^3
QUANTITATIVE_READOUT: 162.3
//
COMPOUND: C[N+]1(C)CCN(C(=O)CCCOc2ccc(C34CC5CC(CC(C5)C3)C4)cc2)CC1.[I-] [Compound I-22]
VALUE_KIND: Tumor volume
READOUT_UNITS: mm^3
QUANTITATIVE_READOUT: 143.1
//
COMPOUND: Cc1cc(C23CC4CC(CC(C4)C2)C3)ccc1OCC(=O)N1CCOCC1 [Compound I-6]
VALUE_KIND: Tumor volume
READOUT_UNITS: mm^3
QUANTITATIVE_READOUT: 186.6

Okay, now this compound:
Q) Given CN(C)CCNC(=O)C(C)(C)Oc1ccc(C23CC4CC(CC(C4)C2)C3)cc1 [Compound I-24] , state its recorded Tumor volume.
A) 341.7

###

TEST: Body weight change and side effects during 14 days of oral treatment in nude mice
Format: in vivo, BALB/c nu/nu mice
PROTOCOL_CONDITIONS: day 7, 20 mg/kg oral once a day
Below, each entry is listed with its recorded Body weight change.
The response must be a number in % with no trailing unit.

COMPOUND_STRUCTURE_STRING: CN1CCN(C(=O)C(C)(C)Oc2ccc(C34CC5CC(CC(C5)C3)C4)cc2)CC1
Body weight change [%]: 100.9
--
COMPOUND_STRUCTURE_STRING: CN(C)CCNC(=O)C(C)(C)Oc1ccc(C23CC4CC(CC(C4)C2)C3)cc1
Body weight change [%]: 103.6

Okay, now this molecule:
Q) Given C[N+]1(C)CCN(C(=O)CCCOc2ccc(C34CC5CC(CC(C5)C3)C4)cc2)CC1.[I-] , state its recorded Body weight change.
A) 104.1
